target: T1, human PD-1 expressed on cells (human, UniProt Q15116 25-288); experiment: flow cytometry on activated hCD8 T cells from human blood, 2nd-hIgG-PE detection; 2nd-hIgG-PE alone 1.73
T1 construct: whole, on cells; also called hPD-1; 293 cell line stably expressing human PD-1
T1 sequence (Q15116 25-288): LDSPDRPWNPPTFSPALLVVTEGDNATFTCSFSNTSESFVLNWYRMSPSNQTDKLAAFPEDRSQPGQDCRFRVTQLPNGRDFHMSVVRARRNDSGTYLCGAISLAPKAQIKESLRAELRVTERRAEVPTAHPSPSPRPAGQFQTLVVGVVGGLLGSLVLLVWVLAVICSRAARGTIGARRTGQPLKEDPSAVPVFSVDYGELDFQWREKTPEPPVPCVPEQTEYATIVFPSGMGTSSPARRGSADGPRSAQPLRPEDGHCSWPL
Reported percent of cells in the positive quadrant is given for each of the following binders.
Dear colleague, please return just the value in %, with no unit written.

2B3W-T14-05 (antibody, human IgG4, V domains shown, also called EU135-T14.05) VH: EVQLVESGGGLVQPGGSLRLSCAASGFVFSNYDMSWVRQAPGKGLEWVAYITIGGGTTYYPDTVKGRFTISRDNAKNSLYLQMNSLRAEDTAVYYCARWRYDPLFAMDYWGQGTTVTVSS VL: DIVLTQTPLSLSVTPGQPASISCRASESVTDYGISFMNWFLQKPGQPPQLLIYAASNQGSGVPDRFSGSGSGTDFTLKISRVEAEDVGVYYCQQSKEVPWTFGQGTKVEIK: 17
T15-02 (antibody, V domains shown) VH: EVQLVESGGGLVKPGGSLRLSCAASGFTFSSFGMSWVRQAPGKGLELVATIYSNGDYTYYPDSVKGRFTVSRDNAKNSLYLQMNSLRAEDTAVYYCARYYGNYGGYFDYWGQGTLVTVSS VL: AIQMTQSPSSLSASVGDRVTITCKASQSVSNDVAWYQQKPGKAPKLLIYYASNRYTGVPSRFSGSGSGTDFTLTISSLQPEDFATYYCQQDFWYPPTFGGGTKVEIK: 19.3
humanized antibody 7C5 (antibody, V domains shown, Humanized antibody) VH: EVQLVESGGGLVKPGGSLRLSCAASGFTFSSFGMSWVRQAPGKGLELVATIYSNGDYTYYPDSVKGRFTVSRDNAKNSLYLQMNSLRAEDTAVYYCARYYGNYGGYFDYWGQGTLVTVSS VL: AIQMTQSPSSLSASVGDRVTITCKASQSVSNDVAWYQQKPGKAPKLLIYYASNRYTGVPSRFSGSGSGTDFTLTISSLQPEDFATYYCQQDYSSPPTFGGGTKVEIK: 6.39

Which percent of cells in the positive quadrant value is on record for T15-04 (antibody, V domains shown) VH: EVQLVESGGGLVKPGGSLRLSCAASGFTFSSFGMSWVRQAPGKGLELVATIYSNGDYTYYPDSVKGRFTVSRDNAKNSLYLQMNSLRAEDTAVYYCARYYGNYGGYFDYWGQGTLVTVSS VL: AIQMTQSPSSLSASVGDRVTITCKASQSVSNDVAWYQQKPGKAPKLLIYYAYMRYTGVPSRFSGSGSGTDFTLTISSLQPEDFATYYCQQDYSSPPTFGGGTKVEIK ?
12.4
